Recorded Emax values for a group of compounds are listed next.
# TARGET_DESC: human F508del CFTR (Homo sapiens, UniProt P13569, DEL508-508)
# Construct: expressed in transfected cells
# Sequence (P13569 with tags, fused parts or gaps DEL508-508): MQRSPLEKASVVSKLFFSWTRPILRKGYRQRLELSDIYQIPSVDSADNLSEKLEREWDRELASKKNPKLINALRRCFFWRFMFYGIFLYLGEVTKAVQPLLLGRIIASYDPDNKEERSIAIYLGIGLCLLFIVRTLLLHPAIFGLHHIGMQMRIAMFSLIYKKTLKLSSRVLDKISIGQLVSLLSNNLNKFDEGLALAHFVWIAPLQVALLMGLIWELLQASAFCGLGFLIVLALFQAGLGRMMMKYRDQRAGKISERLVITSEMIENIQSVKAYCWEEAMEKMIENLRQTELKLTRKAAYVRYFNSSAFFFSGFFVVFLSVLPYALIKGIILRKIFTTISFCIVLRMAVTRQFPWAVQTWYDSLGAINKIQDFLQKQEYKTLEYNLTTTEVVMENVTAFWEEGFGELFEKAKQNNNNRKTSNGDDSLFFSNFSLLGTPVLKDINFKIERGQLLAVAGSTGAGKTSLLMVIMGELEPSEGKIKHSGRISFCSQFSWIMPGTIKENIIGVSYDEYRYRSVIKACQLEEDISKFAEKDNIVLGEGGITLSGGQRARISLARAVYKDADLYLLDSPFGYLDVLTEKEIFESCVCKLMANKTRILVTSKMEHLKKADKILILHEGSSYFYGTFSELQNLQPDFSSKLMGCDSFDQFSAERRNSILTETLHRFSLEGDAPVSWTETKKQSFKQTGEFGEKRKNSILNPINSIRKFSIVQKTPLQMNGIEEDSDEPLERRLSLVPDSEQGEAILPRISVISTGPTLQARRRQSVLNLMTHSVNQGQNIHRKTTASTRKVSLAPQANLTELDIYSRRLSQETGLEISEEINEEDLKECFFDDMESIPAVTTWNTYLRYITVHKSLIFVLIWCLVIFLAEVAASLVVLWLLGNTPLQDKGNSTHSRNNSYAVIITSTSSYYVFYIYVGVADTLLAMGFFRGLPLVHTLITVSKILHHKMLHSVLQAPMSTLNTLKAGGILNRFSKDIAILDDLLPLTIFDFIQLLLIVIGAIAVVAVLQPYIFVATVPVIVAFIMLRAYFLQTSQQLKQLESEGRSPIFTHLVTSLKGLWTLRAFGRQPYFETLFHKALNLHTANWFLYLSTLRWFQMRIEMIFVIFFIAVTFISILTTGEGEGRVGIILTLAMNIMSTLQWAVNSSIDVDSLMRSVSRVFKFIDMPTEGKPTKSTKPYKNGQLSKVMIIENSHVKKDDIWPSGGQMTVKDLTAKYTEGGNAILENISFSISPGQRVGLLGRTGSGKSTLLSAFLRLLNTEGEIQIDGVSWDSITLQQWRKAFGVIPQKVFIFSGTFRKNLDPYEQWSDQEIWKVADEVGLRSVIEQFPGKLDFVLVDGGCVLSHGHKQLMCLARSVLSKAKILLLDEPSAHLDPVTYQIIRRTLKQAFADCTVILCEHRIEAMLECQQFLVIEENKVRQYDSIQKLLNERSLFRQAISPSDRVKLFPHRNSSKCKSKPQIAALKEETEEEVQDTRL
# ASSAY_PROCEDURE: CFTR-YFP Assay, CFTR Corrector Protocol (YFP flux assay)
# Assay type: cell-based
# RUN_CONDITIONS: normalized to the positive control, read-out: EMAX (% Efficacy, EMAX normalized to the positive control)
MEASUREMENT_LABEL: Emax

compound="O=S(=O)(c1ccc2cc[nH]c2c1)N1CCC(n2c(-c3ccncc3Cl)nc3cccnc32)CC1 [Example 161]" measurement="10 to 30%"
compound="COc1ccc2c(c1)nc(-c1ccc(F)cc1F)n2C1CCN(S(=O)(=O)c2ccc3nc(C)oc3c2)CC1 [Example 164]" measurement="> 80%"
compound="CC1Cc2cc(S(=O)(=O)N3CCC(n4c(-c5ccncc5F)nc5cccnc54)CC3)ccc2N1 (stereo not shown) [Example 148]" measurement="10 to 30%"
compound="O=C(c1ccccc1Cl)N(c1ccccn1)C1CCN(S(=O)(=O)c2ccc3c(c2)OCO3)CC1 [Example 197]" measurement="10 to 30%"
compound="CCc1ccc(S(=O)(=O)N2CCC(N(c3cnc(OC)cn3)S(=O)(=O)c3ccccc3Cl)CC2)cc1 [Example 245]" measurement="30 to 80%"
compound="CC(=O)N1c2ccc(S(=O)(=O)N3CCC(n4c(-c5ccncn5)nc5cccnc54)CC3)cc2CC1C (stereo not shown) [Example 152]" measurement="10 to 30%"
compound="Cc1ccc2nc(-c3ccncn3)n(C3CCN(S(=O)(=O)c4ccc5c(c4)OC(F)(F)O5)CC3)c2n1 [Example 114]" measurement="30 to 80%"

====

# TARGET_DESC: human F508del CFTR (Homo sapiens, UniProt P13569, DEL508-508)
# Construct: expressed in transfected cells
# ASSAY_PROCEDURE: CFTR-YFP Assay, CFTR Corrector Protocol (YFP flux assay)
# Assay type: cell-based
# RUN_CONDITIONS: normalized to the positive control, read-out: EMAX (% Efficacy, EMAX normalized to the positive control)
MEASUREMENT_LABEL: Emax

compound="O=S(=O)(c1ccc2c(c1)OC(F)(F)O2)N1CCC(n2c(-c3ccccc3OC(F)(F)F)nc3cccnc32)CC1 [Example 124]" measurement="30 to 80%"
compound="CCc1ccc(S(=O)(=O)N2CCC(n3c(-c4ccncc4F)nc4cc(OC)ccc43)CC2)cc1 [Example 151]" measurement="30 to 80%"
compound="CCc1ccc(S(=O)(=O)N2CCC(N(c3ccc(F)cc3)S(=O)(=O)c3ccccc3Cl)CC2)cc1 [Example 241]" measurement="10 to 30%"
compound="O=S(=O)(c1ccc2c(c1)CCO2)N1CCC(n2c(-c3ccncc3F)nc3cccnc32)CC1 [Example 117]" measurement="30 to 80%"
compound="Cc1nc2ccc(S(=O)(=O)N3CCC(n4c(-c5ccncc5F)nc5cccnc54)CC3)cc2o1 [Example 133]" measurement="> 80%"
compound="N#Cc1ccc(S(=O)(=O)N2CCC(n3c(-c4ccccc4)nc4cccnc43)CC2)cc1Cl [Example 71]" measurement="10 to 30%"
compound="CC(=O)N1c2ccc(S(=O)(=O)N3CCC(n4c(-c5ccc(F)cc5F)nc5cccnc54)CC3)cc2CC1C (stereo not shown) [Example 146]" measurement="10 to 30%"
compound="Cc1ccc2nc(-c3ccc4c(c3)OC(F)(F)O4)n(C3CCN(S(=O)(=O)c4ccc5c(c4)OC(F)(F)O5)CC3)c2n1 [Example 87]" measurement="10 to 30%"
compound="CCc1ccc(S(=O)(=O)N2CCC(N(c3cccc(C)n3)S(=O)(=O)c3ccccc3Cl)CC2)cc1 [Example 189]" measurement="30 to 80%"
compound="O=S(=O)(c1ccc2c(c1)OC(F)(F)O2)N1CCC(n2c(-c3ccncc3Cl)nc3cccnc32)CC1 [Example 38]" measurement="> 80%"
compound="COc1ccc(S(=O)(=O)N2CCC(N(C(=O)c3ccccc3)c3cccc(C)n3)CC2)cc1Cl [Example 174]" measurement="10 to 30%"
compound="CCc1ccc(S(=O)(=O)N2CCC(N(c3cccc(C)n3)S(=O)(=O)c3c(C)cc(C)cc3C)CC2)cc1 [Example 192]" measurement="30 to 80%"
compound="O=S(=O)(c1ccc2c(c1)OC(F)(F)O2)N1CCC(n2c(-c3ccc(F)nc3F)nc3cccnc32)CC1 [Example 106]" measurement="10 to 30%"
